Tested on: NCI-H522
Assay: NCI60 one-dose screen
Assay type: cell-based
Conditions: Homo sapiens; NCI-H522, 10 μM; read-out: Growth percent
Overview of recorded activity at 10 µM for various compounds
quantity-measured: activity at 10 µM

- compound: "O=c1cc(-c2ccccc2)oc2cc(O)cc(O)c12 [compound 2, 5,7-dihydroxyflavone, reference compound]"
  quantity-measured: "activity at 10 µM"
  result-value: "89%"
- compound: "O=c1cc(-c2ccccc2)oc2cc(OCCCC[P+](c3ccc(F)cc3)(c3ccc(F)cc3)c3ccc(F)cc3)cc(O)c12"
  quantity-measured: "activity at 10 µM"
  result-value: "-74.4%"
- compound: "O=c1cc(-c2ccccc2)oc2cc(OCCCC[P+](c3ccccc3)(c3ccccc3)c3ccccn3)cc(O)c12"
  quantity-measured: "activity at 10 µM"
  result-value: "-72.3%"
- compound: "Cc1ccccc1[P+](CCCCOc1cc(O)c2c(=O)cc(-c3ccccc3)oc2c1)(c1ccccc1C)c1ccccc1C"
  quantity-measured: "activity at 10 µM"
  result-value: "-98.5%"
- compound: "COc1ccc([P+](CCCCOc2cc(O)c3c(=O)cc(-c4ccccc4)oc3c2)(c2ccc(OC)cc2)c2ccc(OC)cc2)cc1"
  quantity-measured: "activity at 10 µM"
  result-value: "-84.9%"
- compound: "O=c1cc(-c2ccccc2)oc2cc(OCCCC[P+](C3CCCCC3)(C3CCCCC3)C3CCCCC3)cc(O)c12"
  quantity-measured: "activity at 10 µM"
  result-value: "-88%"
- compound: "Cc1ccc([P+](CCCCOc2cc(O)c3c(=O)cc(-c4ccccc4)oc3c2)(c2ccc(C)cc2)c2ccc(C)cc2)cc1"
  quantity-measured: "activity at 10 µM"
  result-value: "-74.4%"
- compound: "COc1c(C)cc([P+](CCCCOc2cc(O)c3c(=O)cc(-c4ccccc4)oc3c2)(c2cc(C)c(OC)c(C)c2)c2cc(C)c(OC)c(C)c2)cc1C"
  quantity-measured: "activity at 10 µM"
  result-value: "-77.3%"
- compound: "O=c1cc(-c2ccccc2)oc2cc(OCCCC[P+](c3ccccc3)(c3ccccc3)c3ccccc3)cc(O)c12"
  quantity-measured: "activity at 10 µM"
  result-value: "-81.9%"

====

Overview of recorded activity at 10 µM for various compounds
Test system: U251
Test: NCI60 one-dose screen
Type: cell-based
Conditions: Homo sapiens, U-251; U251, 10 μM; read-out: Growth percent
quantity-measured: activity at 10 µM (%)

- compound: "O=c1cc(-c2ccccc2)oc2cc(O)cc(O)c12 [compound 2, 5,7-dihydroxyflavone, reference compound]"
  quantity-measured: "activity at 10 µM"
  result-value: 80.7
- compound: "COc1ccc([P+](CCCCOc2cc(O)c3c(=O)cc(-c4ccccc4)oc3c2)(c2ccc(OC)cc2)c2ccc(OC)cc2)cc1 [3c]"
  quantity-measured: "activity at 10 µM"
  result-value: -92.6
- compound: "O=c1cc(-c2ccccc2)oc2cc(OCCCC[P+](c3ccc(F)cc3)(c3ccc(F)cc3)c3ccc(F)cc3)cc(O)c12 [3d]"
  quantity-measured: "activity at 10 µM"
  result-value: -40.7
- compound: "O=c1cc(-c2ccccc2)oc2cc(OCCCC[P+](c3ccccc3)(c3ccccc3)c3ccccn3)cc(O)c12 [3h]"
  quantity-measured: "activity at 10 µM"
  result-value: -96
- compound: "Cc1ccccc1[P+](CCCCOc1cc(O)c2c(=O)cc(-c3ccccc3)oc2c1)(c1ccccc1C)c1ccccc1C [3g]"
  quantity-measured: "activity at 10 µM"
  result-value: -97
- compound: "O=c1cc(-c2ccccc2)oc2cc(OCCCC[P+](C3CCCCC3)(C3CCCCC3)C3CCCCC3)cc(O)c12 [3e]"
  quantity-measured: "activity at 10 µM"
  result-value: -95.5
- compound: "COc1c(C)cc([P+](CCCCOc2cc(O)c3c(=O)cc(-c4ccccc4)oc3c2)(c2cc(C)c(OC)c(C)c2)c2cc(C)c(OC)c(C)c2)cc1C [3f]"
  quantity-measured: "activity at 10 µM"
  result-value: -76.6
- compound: "Cc1ccc([P+](CCCCOc2cc(O)c3c(=O)cc(-c4ccccc4)oc3c2)(c2ccc(C)cc2)c2ccc(C)cc2)cc1 [3b]"
  quantity-measured: "activity at 10 µM"
  result-value: -50
- compound: "O=c1cc(-c2ccccc2)oc2cc(OCCCC[P+](c3ccccc3)(c3ccccc3)c3ccccc3)cc(O)c12 [3a]"
  quantity-measured: "activity at 10 µM"
  result-value: -57.4

Entry source: paper PMC12652692
